- Assay info: activity coefficient (dimensionless); of the first substance listed, at infinite dilution; xn = mol fraction of the nth substance listed
- Condition label: 308.15 K; 101 kPa; Liquid; Chromatography; x1 = 0

Compound	activity coefficient
C#CCCCCC [1-heptyne] + CCCC[n+]1cccc(C)c1.N#C[N-]C#N	6.16
C1=CCCCC1 [cyclohexene] + CCCC[n+]1cccc(C)c1.N#C[N-]C#N	9.2
C=CCCCC [hex-1-ene] + CCCC[n+]1cccc(C)c1.N#C[N-]C#N	22.4
c1ccsc1 [thiophene] + CCCC[n+]1cccc(C)c1.N#C[N-]C#N	0.822
CCCCCC [hexane] + CCCC[n+]1cccc(C)c1.N#C[N-]C#N	56.1
C1CCCC1 [cyclopentane] + CCCC[n+]1cccc(C)c1.N#C[N-]C#N	15.1
C#CCCC [1-pentyne] + CCCC[n+]1cccc(C)c1.N#C[N-]C#N	2.9
CCCCCCCCC [nonane] + CCCC[n+]1cccc(C)c1.N#C[N-]C#N	182
COC(C)(C)C [2-methoxy-2-methylpropane] + CCCC[n+]1cccc(C)c1.N#C[N-]C#N	6.76
CCC(C)(C)OC [2-methoxy-2-methylbutane] + CCCC[n+]1cccc(C)c1.N#C[N-]C#N	9.8
CC(C)CC(C)(C)C [2,2,4-trimethylpentane] + CCCC[n+]1cccc(C)c1.N#C[N-]C#N	104
C=CCCCCCCCC [1-decene] + CCCC[n+]1cccc(C)c1.N#C[N-]C#N	109
C1CCCCC1 [cyclohexane] + CCCC[n+]1cccc(C)c1.N#C[N-]C#N	23
CCCCCCCCCC [decane] + CCCC[n+]1cccc(C)c1.N#C[N-]C#N	275
CCOC(C)(C)C [2-ethoxy-2-methylpropane] + CCCC[n+]1cccc(C)c1.N#C[N-]C#N	18
CCCCCCCC [octane] + CCCC[n+]1cccc(C)c1.N#C[N-]C#N	123
C#CCCCC [1-hexyne] + CCCC[n+]1cccc(C)c1.N#C[N-]C#N	4.13
C1CCCCCCC1 [cyclooctane] + CCCC[n+]1cccc(C)c1.N#C[N-]C#N	35.1
C1CCOC1 [tetrahydrofuran] + CCCC[n+]1cccc(C)c1.N#C[N-]C#N	1.38

----------
- Assay info: activity coefficient (dimensionless); of the first substance listed, at infinite dilution; xn = mol fraction of the nth substance listed
- Condition label: 328.15 K; 101 kPa; Liquid; Chromatography; x1 = 0

Molecule	activity coefficient
CCC(=O)CC [pentan-3-one] + CCCC[n+]1cccc(C)c1.N#C[N-]C#N	1.84
C1CCCCCC1 [cycloheptane] + CCCC[n+]1cccc(C)c1.N#C[N-]C#N	23.6
CCC(C)CC [3-methylpentane] + CCCC[n+]1cccc(C)c1.N#C[N-]C#N	43.1
Cc1ccccc1C [1,2-dimethylbenzene] + CCCC[n+]1cccc(C)c1.N#C[N-]C#N	2.47
C=CCCCCCC [oct-1-ene] + CCCC[n+]1cccc(C)c1.N#C[N-]C#N	44

----------
Recorded activity coefficient, one value per entry.
- Assay info: activity coefficient (dimensionless); of the first substance listed, at infinite dilution; xn = mol fraction of the nth substance listed
- Condition label: 338.15 K; 101 kPa; Liquid; Chromatography; x1 = 0

Compound	activity coefficient
C=CCCCCC [1-heptene] + CCCC[n+]1cccc(C)c1.N#C[N-]C#N	28.3
CCCCCCCC [octane] + CCCC[n+]1cccc(C)c1.N#C[N-]C#N	92.7
C1=CCCCC1 [cyclohexene] + CCCC[n+]1cccc(C)c1.N#C[N-]C#N	8.27
CCC(C)(C)C [2,2-dimethylbutane] + CCCC[n+]1cccc(C)c1.N#C[N-]C#N	42.9
C=Cc1ccccc1 [styrene] + CCCC[n+]1cccc(C)c1.N#C[N-]C#N	1.44
CCCC(C)=O [pentan-2-one] + CCCC[n+]1cccc(C)c1.N#C[N-]C#N	1.84
CC(C)=O [acetone] + CCCC[n+]1cccc(C)c1.N#C[N-]C#N	0.968
C=CCCC [1-pentene] + CCCC[n+]1cccc(C)c1.N#C[N-]C#N	13.7
CCCC(=O)CC [3-hexanone] + CCCC[n+]1cccc(C)c1.N#C[N-]C#N	2.77
CCCCO [butan-1-ol] + CCCC[n+]1cccc(C)c1.N#C[N-]C#N	0.88
C1CCCCCC1 [cycloheptane] + CCCC[n+]1cccc(C)c1.N#C[N-]C#N	22.1
CCC(=O)CC [pentan-3-one] + CCCC[n+]1cccc(C)c1.N#C[N-]C#N	1.89
C#CCCCC [1-hexyne] + CCCC[n+]1cccc(C)c1.N#C[N-]C#N	4.45
CCCCCCC [heptane] + CCCC[n+]1cccc(C)c1.N#C[N-]C#N	64.3
COC(C)(C)C [2-methoxy-2-methylpropane] + CCCC[n+]1cccc(C)c1.N#C[N-]C#N	6.78
CCCO [propan-1-ol] + CCCC[n+]1cccc(C)c1.N#C[N-]C#N	0.678
c1ccccc1 [benzene] + CCCC[n+]1cccc(C)c1.N#C[N-]C#N	1.4
CCC(C)CC [3-methylpentane] + CCCC[n+]1cccc(C)c1.N#C[N-]C#N	39.8
C#CCCCCC [1-heptyne] + CCCC[n+]1cccc(C)c1.N#C[N-]C#N	6.48
Cc1cccc(C)c1 [1,3-dimethylbenzene] + CCCC[n+]1cccc(C)c1.N#C[N-]C#N	3.06
C1CCCC1 [cyclopentane] + CCCC[n+]1cccc(C)c1.N#C[N-]C#N	12.6
C#CCCC [1-pentyne] + CCCC[n+]1cccc(C)c1.N#C[N-]C#N	3.14
Cc1ccc(C)cc1 [1,4-dimethylbenzene] + CCCC[n+]1cccc(C)c1.N#C[N-]C#N	2.92
CCOC(C)(C)C [2-ethoxy-2-methylpropane] + CCCC[n+]1cccc(C)c1.N#C[N-]C#N	16.7
CC(C)CC(C)(C)C [2,2,4-trimethylpentane] + CCCC[n+]1cccc(C)c1.N#C[N-]C#N	78.3
CCC[N+](=O)[O-] [1-nitropropane] + CCCC[n+]1cccc(C)c1.N#C[N-]C#N	1.13
CCc1ccccc1 [ethylbenzene] + CCCC[n+]1cccc(C)c1.N#C[N-]C#N	3.26
C1CCOC1 [tetrahydrofuran] + CCCC[n+]1cccc(C)c1.N#C[N-]C#N	1.45
c1ccsc1 [thiophene] + CCCC[n+]1cccc(C)c1.N#C[N-]C#N	0.89
C#CCCCCCC [1-octyne] + CCCC[n+]1cccc(C)c1.N#C[N-]C#N	9.52
CCC(C)(C)OC [2-methoxy-2-methylbutane] + CCCC[n+]1cccc(C)c1.N#C[N-]C#N	9.51
C1CCCCC1 [cyclohexane] + CCCC[n+]1cccc(C)c1.N#C[N-]C#N	18.5
O=C1CCCCC1 [cyclohexanone] + CCCC[n+]1cccc(C)c1.N#C[N-]C#N	0.928
CC#N [acetonitrile] + CCCC[n+]1cccc(C)c1.N#C[N-]C#N	0.736
Cc1ccccc1C [1,2-dimethylbenzene] + CCCC[n+]1cccc(C)c1.N#C[N-]C#N	2.51
C1COCCO1 [1,4-dioxane] + CCCC[n+]1cccc(C)c1.N#C[N-]C#N	1.01
CCOCC [diethyl ether] + CCCC[n+]1cccc(C)c1.N#C[N-]C#N	6.26

----------
- Assay info: activity coefficient (dimensionless); of the first substance listed, at infinite dilution; xn = mol fraction of the nth substance listed
- Condition label: 358.15 K; 101 kPa; Liquid; Chromatography; x1 = 0

Compound	activity coefficient
C#CCCCCC [1-heptyne] + CCCC[n+]1cccc(C)c1.N#C[N-]C#N	6.67
Cc1ccccc1 [toluene] + CCCC[n+]1cccc(C)c1.N#C[N-]C#N	2.15
CCCCCCC [heptane] + CCCC[n+]1cccc(C)c1.N#C[N-]C#N	55.4
CCCCCCCCC [nonane] + CCCC[n+]1cccc(C)c1.N#C[N-]C#N	112
C1CCCC1 [cyclopentane] + CCCC[n+]1cccc(C)c1.N#C[N-]C#N	11.3
CCOC(C)(C)C [2-ethoxy-2-methylpropane] + CCCC[n+]1cccc(C)c1.N#C[N-]C#N	15.9
CCCCCCCCCC [decane] + CCCC[n+]1cccc(C)c1.N#C[N-]C#N	163
CCCCC(C)=O [2-hexanone] + CCCC[n+]1cccc(C)c1.N#C[N-]C#N	2.59
Cc1ccccc1C [1,2-dimethylbenzene] + CCCC[n+]1cccc(C)c1.N#C[N-]C#N	2.64
CCCOCCC [dipropyl ether] + CCCC[n+]1cccc(C)c1.N#C[N-]C#N	15.6
CCCO [propan-1-ol] + CCCC[n+]1cccc(C)c1.N#C[N-]C#N	0.65
C=CCCCC [hex-1-ene] + CCCC[n+]1cccc(C)c1.N#C[N-]C#N	17.8
C1CCCCC1 [cyclohexane] + CCCC[n+]1cccc(C)c1.N#C[N-]C#N	16.5
c1ccccc1 [benzene] + CCCC[n+]1cccc(C)c1.N#C[N-]C#N	1.47
C1=CCCCC1 [cyclohexene] + CCCC[n+]1cccc(C)c1.N#C[N-]C#N	7.76
O=C1CCCCC1 [cyclohexanone] + CCCC[n+]1cccc(C)c1.N#C[N-]C#N	0.988
C1COCCO1 [1,4-dioxane] + CCCC[n+]1cccc(C)c1.N#C[N-]C#N	1.08
CC#N [acetonitrile] + CCCC[n+]1cccc(C)c1.N#C[N-]C#N	0.76
CCCC(=O)CC [3-hexanone] + CCCC[n+]1cccc(C)c1.N#C[N-]C#N	2.87

Every entry's value here was drawn from the NIST ThermoML archive (doi:10.1016/j.jct.2013.09.007).
